Hey, just so you know, these numbers are from patent US20160297884A1.

target: T1, Cynomolgus monkey BCMA (cynomolgus monkey); assay: SPR, IgG immobilised, cyno BCMA analyte
T1 construct: Soluble analyte in SPR; also called cyBCMA; Cyno BCMA
Criterion: koff strictly under 0.001 s⁻¹. Met: YES. Not met: NO.

Lab log: compare recorded koff with 0.001 s⁻¹; is it strictly lower for COMBO_Rd4_0.6nM_C21 (antibody, V domains shown, IgG) VH: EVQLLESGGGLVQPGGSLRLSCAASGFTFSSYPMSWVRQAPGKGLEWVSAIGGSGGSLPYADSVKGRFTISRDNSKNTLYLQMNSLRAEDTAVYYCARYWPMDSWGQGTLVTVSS VL: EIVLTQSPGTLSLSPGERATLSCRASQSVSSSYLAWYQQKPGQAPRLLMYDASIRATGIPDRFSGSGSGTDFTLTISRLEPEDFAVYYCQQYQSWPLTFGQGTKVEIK ? YES

Lab log: compare recorded koff with 0.001 s⁻¹; is it strictly lower for A02_Rd4_6nM_C16 (antibody, V domains shown, IgG; also called P5AC16) VH: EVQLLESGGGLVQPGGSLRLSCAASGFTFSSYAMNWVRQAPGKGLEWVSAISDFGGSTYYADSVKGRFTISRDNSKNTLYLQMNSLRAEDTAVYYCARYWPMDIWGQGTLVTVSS VL: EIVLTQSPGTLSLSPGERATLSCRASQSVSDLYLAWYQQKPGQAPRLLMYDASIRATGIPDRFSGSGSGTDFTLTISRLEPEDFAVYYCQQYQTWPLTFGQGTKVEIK ? YES

Lab log: compare recorded koff with 0.001 s⁻¹; is it strictly lower for C01_Rd4_6nM_C12 (antibody, V domains shown, IgG; also called PC1C12) VH: EVQLLESGGGLVQPGGSLRLSCAASGFTFSSYPMSWVRQAPGKGLEWVSAIGGSGGWSYYADSVKGRFTISRDNSKNTLYLQMNSLRAEDTAVYYCARYWPMDSWGQGTLVTVSS VL: EIVLTQSPGTLSLSPGERATLSCWLSQSVSSTYLAWYQQKPGQAPRLLIYDASSRAPGIPDRFSGSGSGTDFTLTISRLEPEDFAVYYCQQYSEWPLTFGQGTKVEIK ? NO

Lab log: compare recorded koff with 0.001 s⁻¹; is it strictly lower for COMBO_Rd4_0.6nM_C11 (antibody, V domains shown, IgG) VH: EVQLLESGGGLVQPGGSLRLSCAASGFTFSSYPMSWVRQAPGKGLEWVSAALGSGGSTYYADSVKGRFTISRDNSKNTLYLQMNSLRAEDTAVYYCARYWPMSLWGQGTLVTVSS VL: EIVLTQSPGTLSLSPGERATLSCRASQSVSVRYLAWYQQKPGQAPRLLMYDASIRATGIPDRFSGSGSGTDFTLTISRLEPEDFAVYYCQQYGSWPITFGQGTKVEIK ? NO

Lab log: compare recorded koff with 0.001 s⁻¹; is it strictly lower for A02_Rd4_6nM_C05 (antibody, V domains shown, IgG) VH: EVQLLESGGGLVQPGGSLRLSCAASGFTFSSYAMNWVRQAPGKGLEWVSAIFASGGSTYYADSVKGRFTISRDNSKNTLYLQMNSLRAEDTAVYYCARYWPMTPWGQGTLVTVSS VL: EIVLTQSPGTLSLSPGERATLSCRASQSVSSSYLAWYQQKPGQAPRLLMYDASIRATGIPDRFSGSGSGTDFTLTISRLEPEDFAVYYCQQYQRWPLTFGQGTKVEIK ? NO
